- testSystem: Nuclear receptor subfamily 1 group I member 3 (Homo sapiens) (UniProt Q14994)
- Sequence (Q14994 whole entry, looked up): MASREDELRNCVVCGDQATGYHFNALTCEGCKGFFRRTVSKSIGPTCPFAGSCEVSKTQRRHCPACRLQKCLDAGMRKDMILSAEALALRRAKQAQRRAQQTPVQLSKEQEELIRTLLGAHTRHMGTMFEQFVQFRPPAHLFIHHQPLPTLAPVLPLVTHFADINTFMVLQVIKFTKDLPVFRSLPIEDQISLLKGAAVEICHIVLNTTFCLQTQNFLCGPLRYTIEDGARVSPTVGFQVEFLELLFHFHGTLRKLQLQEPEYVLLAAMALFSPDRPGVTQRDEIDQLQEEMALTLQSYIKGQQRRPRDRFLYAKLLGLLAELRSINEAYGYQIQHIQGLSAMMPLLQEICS
- assayProtocol: qHTS assay to identify small molecule agonists of the constitutive androstane receptor (CAR) signaling pathway (AID 1224839); further: nearly all actives have a fitted effect of over 15% in size;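 on activation: HepG2 cells stably carrying human CAR and a CYP2B6 luciferase reporter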
- conditionParameters: HepG2 hCAR CYP2B6-luciferase, agonist mode, 24 h; series mostly up to 92.4 µM
Results filed as inconclusive are left out. The source made the active and inactive calls. The call rests on the fitted dose curve; in most records, active means well fitted activation curve with a large enough effect in the repeat runs; inconclusive means weak or mixed curves; inactive means no such curve, though single readings can be large or run the other way.
Outcomes: t (active), f (inactive)

1) Cc1cc2nc(N)sc2cc1C :: t
2) CN1C(=O)CC(c2ccccc2)C1=O (centres undefined) :: f
3) CC(=O)O[C@H]1CC[C@@]2(C)C(=CC[C@@H]3[C@@H]2CC[C@]2(C)C(C(C)=O)=CC[C@@H]32)C1 :: f
4) CC(C)CC(=O)OCc1ccccc1 :: f
5) O=C(Cl)c1cccc([N+](=O)[O-])c1 :: f
6) Cc1c(N)cccc1N :: f
7) OCCN1CCN(CCO)CC1 :: f
8) Nc1ccc(Oc2ccc(N)c(N)c2)cc1 :: t
9) CC(C)C1=CC2=CC[C@@H]3[C@](C)(CCC[C@@]3(C)C(=O)O)[C@H]2CC1 :: f
10) Cc1ccsc1C(=CCCN1CCC[C@@H](C(=O)O)C1)c1sccc1C :: f
11) C1CSCCS1 :: f
12) CCCC1CCC(=O)O1 (centres undefined) :: f
13) O=C1N(c2ccccc2)c2ccccc2C1(Cc1ccncc1)Cc1ccncc1 :: f
14) CCCCCCCCCCCCOCCOS(=O)(=O)O :: f
15) CCCCCCCCc1ccc(S(=O)(=O)O)cc1 :: f
16) CCOc1ccc(NC(N)=O)cc1 :: f
17) c1ccc(CN(CC2=NCCN2)c2ccccc2)cc1 :: f
18) Oc1ccccc1C=NCc1ccccc1 :: f
19) O=Cc1ccc(F)c(Br)c1 :: f
20) FC(F)(F)c1ccccc1 :: f
21) CCOc1ccc(OCC)c(Cl)c1 :: f
22) CCCCC1CCC(=O)O1 (centres undefined) :: f
23) COc1ccc2nc(NC(=O)Nc3ccccc3)sc2c1 :: t
24) CCCCC(CC)COC(=O)COc1cc(Cl)c(Cl)cc1Cl (centres undefined) :: f
25) Cc1ccc(C)c(N)c1 :: f
26) O=S(=O)(O)C(F)(F)F :: f
27) CCCCNC(=S)NCCCC :: f
28) CN1CCN(c2c(F)cc3c(=O)c(C(=O)O)cn4c3c2SCC4)CC1 :: f
29) CN1CCC[C@@H]1Cc1c[nH]c2ccc(CCS(=O)(=O)c3ccccc3)cc12 :: f
